# System: RAW-Dual (murine macrophage reporter line)
# EXPERIMENT: NF-kB reporter (SEAP) activity fold change vs agonist alone; higher = enhanced NF-kB activity
# CONDITIONS_USED: modulator concentration 10 µM; agonist: LPS 0.1 ug/mL
Please provide measured NF-kB reporter for the entries that follow.
Give bare numbers.

// below: answered compounds
{"COMPOUND": "CC1=C(C(=O)Nc2cccc(C)n2)C(c2cccs2)C2=C(CC(C)(C)CC2=O)N1 (centres undefined)", "NF-kB reporter": 1.09}
{"COMPOUND": "CCCc1nc2ccccc2n1C(=O)C=CC(=O)O", "NF-kB reporter": 0.833}
{"COMPOUND": "CCOC(=O)[C@H](CCc1ccccc1)N[C@H]1CCc2ccccc2N(CC(=O)O)C1=O", "NF-kB reporter": 0.978}
{"COMPOUND": "O=C(NCc1cccc(Cl)c1)c1cnc2n(c1=O)CCS2", "NF-kB reporter": 1.02}
{"COMPOUND": "CCCCCCc1cc2cc(-c3nc(-c4ccc(Oc5ccccc5)cc4)cs3)c(=O)oc2cc1O", "NF-kB reporter": 1.04}

Your task in this section: give NF-kB reporter for each listed record.
1. CC(C)(CO)NC(=O)C(c1ccccc1)c1ccccc1
2. CC1=NN(C(=O)c2cccnc2)C(O)(c2ccccc2)C1 (centres undefined)
3. CCc1c(C)c2ccc(OCC(C)=O)c(C)c2oc1=O
4. CCN1C(=O)C(=Cc2cc(Br)ccc2OCCOc2ccccc2Cl)SC1=S
5. Clc1ccc(CN2CCN(c3ncnc4scc(-c5cccs5)c34)CC2)cc1
6. COC(=O)c1ccc(C=NN=C2C(=O)Nc3ccccc32)cc1

[0.961, 0.969, 0.984, 0.899, 1.28, 1.05]

* * *

Please provide measured viability score for the entries that follow.
# System: RAW-Dual (murine macrophage reporter line)
# EXPERIMENT: viability score (confluency relative to resting cells, overnight) (fraction); higher = more viable, active = viable (0.7 or more)
# CONDITIONS_USED: modulator concentration 10 µM
Answers are plain numbers.

{"MOLECULE": "COC(=O)C1=C(C)NC(=O)CC1c1ccc(Cl)c(Cl)c1 (stereo not given)", "TARGET": "RAW-Dual (murine macrophage reporter line)", "MEASURED": 1.01}
{"MOLECULE": "O=S(=O)(c1ccc(Cl)cc1)N1CCN(C2CC3CCC2C3)CC1 (stereo not given)", "TARGET": "RAW-Dual (murine macrophage reporter line)", "MEASURED": 0.984}
{"MOLECULE": "CN(C)c1nc(CNS(C)(=O)=O)nc(N2CCCCC2)n1", "TARGET": "RAW-Dual (murine macrophage reporter line)", "MEASURED": 1}
{"MOLECULE": "Oc1ccc(-c2cnc(-c3ccc(O)cc3)nc2)cc1", "TARGET": "RAW-Dual (murine macrophage reporter line)", "MEASURED": 0.927}

Your task in this section: give viability score for each listed record.
1. O=S(=O)(Nc1nc2ccccc2n2nnnc12)c1ccc(F)cc1
2. COc1ccc(S(=O)(=O)NC(C)C)c2ccccc12
3. CSc1nc2cc(Oc3cccc(Cl)c3Cl)c(Cl)cc2[nH]1
4. C=CCc1ccc(O)c(OC)c1
5. CC(Oc1ccc(Cl)cc1)C(=O)NCc1cccnc1 (stereo not given)

[1.01, 0.951, 0.921, 0.659, 1.01]

The reported viability score of the molecule CNC(=O)c1cc(Oc2ccc(NC(=O)Nc3ccc(Cl)c(C(F)(F)F)c3)cc2)ccn1.Cc1ccc(S(=O)(=O)O)cc1 was 1.01

* * *

Please provide measured NF-kB reporter for the entries that follow.
# Tested on: RAW-Dual (murine macrophage reporter line)
# EXPERIMENT: NF-kB reporter (SEAP) activity fold change vs agonist alone; higher = enhanced NF-kB activity
# CONDITIONS_USED: modulator concentration 10 µM; agonist: CpG ODN 1826 0.5 ug/mL
One number for each entry.

{"ITEM_SMILES": "CCC(=O)Nc1cccc(NC(=O)c2ccc(F)cc2)c1", "REPORTED_PROPERTY": "NF-kB reporter", "MEASURED": 0.852}
{"ITEM_SMILES": "Br.Cc1nc(C)c(-c2csc(Nc3cccc(C(=O)O)c3)n2)s1", "REPORTED_PROPERTY": "NF-kB reporter", "MEASURED": 0.754}
{"ITEM_SMILES": "COc1ccccc1-c1nnc(NC(=O)c2cc(C)nn2C)o1", "REPORTED_PROPERTY": "NF-kB reporter", "MEASURED": 1.08}
{"ITEM_SMILES": "COc1ccc(OCCSc2nc3ccccc3n2CCO)cc1", "REPORTED_PROPERTY": "NF-kB reporter", "MEASURED": 1.01}
{"ITEM_SMILES": "Cc1ccc(-n2c(=O)c3c4c(sc3n3c(S)nnc23)CCCC4)cc1", "REPORTED_PROPERTY": "NF-kB reporter", "MEASURED": 0.968}

Your task in this section: give NF-kB reporter for each listed record.
1. C=Cc1c(C)c2cc3nc(cc4[nH]c(cc5nc(cc1[nH]2)C(C)=C5CCC(=O)O)c(CCC(=O)OC)c4C)[C@@]1(C)C3=CC=C(C(=O)OC)[C@H]1C(=O)OC
2. Cc1cc(C)c(NC(=O)c2ccc(Oc3nccs3)cc2)c(C)c1
3. Br.O=S(=O)(c1ccc(-c2csc(Nc3ccc(Br)cc3)n2)cc1)N1CCCC1
4. CCC(=O)Nc1ccc(NC(=O)c2ccc([N+](=O)[O-])cc2)cc1
5. CC(C)N(C(=O)c1ccc(C(=O)NCc2ccc(S(N)(=O)=O)cc2)cc1)C(C)C

1: 0.419; 2: 0.893; 3: 0.814; 4: 0.982; 5: 0.974

The reported NF-kB reporter of the compound COc1ccc(OC)c(-c2csc(NC(=O)Cc3ccc(F)cc3)n2)c1 was 0.902

* * *

# Tested on: RAW-Dual (murine macrophage reporter line)
# EXPERIMENT: IRF reporter (Lucia luciferase) activity fold change vs agonist alone; higher = enhanced IRF activity
# CONDITIONS_USED: modulator concentration 10 µM; agonist: 3'3'-cGAMP 10 ug/mL
REPORTED_PROPERTY: IRF reporter
Give bare numbers.

{"COMPOUND": "CCOC(=O)CC(C)(O)P(=O)(OCC)OCC (stereo not drawn)", "IRF reporter": 1.04}
{"COMPOUND": "O=C(NN=Cc1cccc(Cl)c1Cl)c1cc(O)cc(O)c1", "IRF reporter": 0.934}

Your task in this section: give IRF reporter for each listed record.
1. CC1Cc2ccccc2N1C(=O)C1CCCN1S(=O)(=O)c1ccc(Cl)cc1 (stereo not drawn)
2. CCN[C@H]1CN(CCCOC)S(=O)(=O)c2sc(S(N)(=O)=O)cc21
3. Cn1ncc(Cl)c1-c1cc(C(=O)N[C@H](CN)Cc2ccc(F)c(F)c2)oc1Cl
4. CC(=O)Nc1ccc2nc(NC(=O)c3ccco3)sc2c1

1: 1.01; 2: 1.03; 3: 0.363; 4: 0.827

Your task in this section: give IRF reporter for each listed record.
1. Nc1ncnc2c1ncn2[C@@H]1O[C@H](CO)[C@@H](O)[C@H]1O
2. Cc1c(Cl)cccc1Nc1ccccc1C(=O)O
3. CCN(CC)c1ccc2cc(-c3nnc(NCc4ccc(F)cc4)s3)c(=O)oc2c1
4. COc1ccc(Nc2nc(Nc3ccc4ncccc4c3)nc(N3CCOCC3)n2)cc1

[1.22, 0.938, 0.941, 0.34]

Your task in this section: give IRF reporter for each listed record.
1. O=C(c1ccc(Cl)cc1)c1ccc(N2CCCCC2)c([N+](=O)[O-])c1
2. COc1ccc(C(=O)N2CC(n3cc(CN4CCCC4=O)nn3)C2)cc1F

1. 0.957
2. 1.05

Your task in this section: give IRF reporter for each listed record.
1. Clc1ccc(CN2CCN(CCn3ccnc3-c3ccccc3)CC2)cc1
2. COc1cc2c(cc1Cc1cccc(Cl)c1F)c(=O)c(C(=O)O)cn2[C@H](CO)C(C)C
3. O=C1CNC(=O)N1CC(O)Cn1c2ccc(Br)cc2c2cc(Br)ccc21 (stereo not drawn)
4. COc1cc2c(cc1OC)C1Cc3ccc(OC)c(OC)c3CN1CC2 (stereo not drawn)
5. CCOc1ccc(C=c2sc3nc4ccccc4n3c2=O)cc1Cl

1. 0.841
2. 0.822
3. 0.989
4. 0.871
5. 1.01

Your task in this section: give IRF reporter for each listed record.
1. O=C(NCC(O)(c1ccccc1)C(F)(F)F)c1ccc(Br)o1 (stereo not drawn)
2. COc1ccc(NC(=O)c2cn(-c3cc(N4CCSCC4)ncn3)cn2)cc1
3. Cc1ccc(COc2ccc3c(C)c(C)c(=O)oc3c2C)cc1
4. O=C(Cn1nc(S(=O)(=O)c2cccc(F)c2)ccc1=O)N1CCc2ccccc2C1

1: 0.858; 2: 1.03; 3: 0.761; 4: 1.02

Your task in this section: give IRF reporter for each listed record.
1. O=[N+]([O-])c1ccc(Nc2ccccc2O)c2nonc12
2. CC(C)(O)CNC(=O)c1cccc([N+](=O)[O-])c1

1: 0.69; 2: 0.811
